- Target system: PIK3CA (human)
- Experimental details: Inhibition of A2780 Cell Proliferation
pEC50: −log10 of the molar value.
Quantity name: pEC50

INSERT INTO results (structure, quantity_name, measured) VALUES
  ('COC(=O)Nc1nc2ccc(-c3ccc(N)nc3)cc2s1', 'pEC50', '> 5.00'),
  ('C/C=C/C(=O)Nc1cn2cc(-c3cnc(N)c(C(F)(F)F)c3)ccc2n1', 'pEC50', '> 5.00'),
  ('CCN(CC)CC#Cc1c(NC(C)=O)nc2ccc(-c3cnc(N)c(C(F)(F)F)c3)cn12', 'pEC50', '> 5.00'),
  ('CCN(CC)Cc1cc(-c2ccc3nc(NC(C)=O)cn3c2)cnc1N', 'pEC50', '> 4.60'),
  ('CC(=O)Nc1nc2ccc(-c3cnc(N)c(C(F)(F)F)c3)cn2c1C#CCNC(=O)OC(C)(C)C', 'pEC50', '> 5.00');

* * *

Each entry below carries its recorded pEC50.
- Target system: PIK3CA (human)
- Experimental details: Inhibition of A2780 Cell Proliferation
pEC50: −log10 of the molar value.
Quantity name: pEC50

INSERT INTO results (structure, quantity_name, measured) VALUES
  ('CC(=O)Nc1nc2ccc(-c3cnc(N)c(F)c3)cc2s1', 'pEC50', '> 5.00'),
  ('CCOCC(=O)Nc1cn2cc(-c3cnc(N)c(C(F)(F)F)c3)ccc2n1', 'pEC50', '> 5.00'),
  ('CC(=O)Nc1cn2cc(-c3cnc(N)c(C(=O)N4CCCC4)c3)ccc2n1', 'pEC50', '> 4.60'),
  ('CC(=O)Nc1cn2cc(-c3cnc(N)c(-c4ccccc4)c3)ccc2n1', 'pEC50', '> 5.00'),
  ('CC(C)(C)OC(=O)N1CC[C@H]1C(=O)Nc1cn2cc(-c3cnc(N)c(C(F)(F)F)c3)ccc2n1', 'pEC50', '> 4.60');

* * *

Examples of compounds with documented EC50 follow.
- Target system: PIK3CA (human)
- Experimental details: Inhibition of A2780 Cell Proliferation
Quantity name: EC50

INSERT INTO results (compound, quantity_name, measured) VALUES
  ('Nc1ncc(-c2ccc3nc(NC(=O)COC4CCNCC4)cn3c2)cc1C(F)(F)F', 'EC50', '< 10 µM'),
  ('CC(=O)Nc1cn2nc(-c3cnc(N)c(C(=O)NCCNC(=O)OC(C)(C)C)c3)ccc2n1', 'EC50', '< 1 µM'),
  ('NCCC(=O)Nc1cn2nc(-c3cnc(N)c(C(F)(F)F)c3)ccc2n1', 'EC50', '< 10 µM'),
  ('CCN1CCCCC1CCC(=O)Nc1cn2nc(-c3cnc(N)c(C(F)(F)F)c3)ccc2n1 (stereo not given)', 'EC50', '< 1 µM'),
  ('CC(=O)Nc1cn2cc(-c3cnc(N)c(OC4CN(C(=O)c5ccccc5)C4)n3)ccc2n1', 'EC50', '< 10 µM'),
  ('CC(=O)Nc1nc2ccc(-c3cnc(N)c(C(F)(F)F)c3)cn2c1Br', 'EC50', '< 25 µM'),
  ('Nc1ncc(-c2ccc3nc(NC(=O)c4cccc(Cl)c4)cn3c2)cc1C(F)(F)F', 'EC50', '< 10 µM'),
  ('C[C@@H](NC(=O)OC(C)(C)C)C(=O)Nc1cn2nc(-c3cnc(N)c(C(F)(F)F)c3)ccc2n1', 'EC50', '< 10 µM'),
  ('COCCCOc1nc(-c2ccc3nc(NC(C)=O)cn3c2)cnc1N', 'EC50', '< 1 µM'),
  ('CC(=O)Nc1cn2cc(-c3cnc(N)c(C=NOC(C)(C)C)c3)ccc2n1', 'EC50', '< 25 µM'),
  ('CC(=O)Nc1cn2cc(-c3cnc(N)c(C(=O)NCCNS(C)(=O)=O)n3)ccc2n1', 'EC50', '< 25 µM'),
  ('CC(=O)Nc1cn2cc(-c3ccc(N)nc3F)ccc2n1', 'EC50', '< 10 µM'),
  ('Cc1cc(C(=O)Nc2cn3cc(-c4cnc(N)c(C(F)(F)F)c4)ccc3n2)no1', 'EC50', '< 1 µM'),
  ('CC(=O)Nc1nc2ccc(-c3cnc(N)c(C(F)(F)F)c3)c(F)c2s1', 'EC50', '< 10 µM'),
  ('CC(=O)Nc1nc2ccc(-c3cnc(N)c(C(F)(F)F)c3)cn2c1-c1cccc(F)c1', 'EC50', '< 25 µM'),
  ('Nc1ncc(-c2ccc3nc(NC(=O)CN4CCCCC4)cn3c2)nc1OCC(F)(F)F', 'EC50', '< 1 µM'),
  ('CCN(CC)Cc1cc(-c2ccc3nc(NC(C)=O)cn3n2)cnc1N', 'EC50', '< 10 µM'),
  ('CC(=O)Nc1cn2c(C)c(-c3cnc(N)c(OCC(F)(F)F)n3)ccc2n1', 'EC50', '< 10 µM'),
  ('CNC(=O)C1CCN(C(=O)Nc2cn3cc(-c4cnc(N)c(C(F)(F)F)c4)ccc3n2)C1 (stereo not given)', 'EC50', '< 25 µM'),
  ('CCC(=O)Nc1cn2cc(-c3cnc(N)c(C(F)(F)F)c3)ccc2n1', 'EC50', '< 10 µM');

Data origin: the Kinase Knowledgebase extract (Sharma et al. 2016)
